experiment: chemical genetic growth profiling, strain panel (AID 1159580);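 also: tested at 20 µM; growth read once vehicle control cultures reached saturation at 30 °C; 1 = growth at the plate median or of vehicle wells; lower values mean less growth of the strain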; conditions: S. cerevisiae deletion strains, growth OD, locus YNL153C, strain GIM3, stronger effect = lower value
Screen size: about 5,500 compounds; about 2,000 (36%) were called active. About 18% were inconclusive and are not listed. The list shows a part of the results.
ASSAY METRIC: normalized growth

Cc1cc(=O)c2c(o1)-c1c(cc(O)c(O)c1C(=O)O)OC2; 1 (inactive)
Cc1cc(Br)c(OCC(=O)NN)c2c1CCC2; 1.02 (inactive)
CCCCCCCCCCCCCCCC[n+]1ccccc1; 0.0537 (active)
Cc1ccc(OCC(=O)NN)c2c1CCC2; 1 (inactive)
COc1ccc(-c2coc3cc(OC)cc(O)c3c2=O)cc1; 0.995 (inactive)
O=c1c(-c2cc(O)c(O)c(O)c2)coc2cc(O)c(O)c(O)c12; 0.582 (active)
COc1cc([C@@H]2c3cc4c(cc3[C@H](O)[C@H]3COC(=O)[C@@H]23)OCO4)cc(OC)c1OC; 1.03 (inactive)
CC1=CCc2c(cc3oc(C)cc(=O)c3c2O)OC1; 0.858 (active)

Dear colleague, could you send me normalized growth for each of the items below? Thanks.
1. NS(=O)(=O)c1cc2c(cc1C(F)(F)F)NCNS2(=O)=O
2. COc1ccc(-c2coc3cc(O)cc(O)c3c2=O)cc1
3. C[C@@H]1CC[C@@]2(OC1)OC1C(O)C3C4CC[C@H]5C[C@H](O[C@@H]6O[C@H](CO)[C@H](O[C@@H]7O[C@H](CO)[C@@H](O)[C@H](O[C@@H]8OC[C@@H](O)[C@H](O)[C@H]8O)[C@H]7O[C@@H]7O[C@H](CO)[C@H](O)[C@H](O[C@@H]8O[C@H](CO)[C@@H](O)[C@H](O)[C@H]8O)[C@H]7O)[C@H](O)[C@H]6O)[C@H](O)C[C@]5(C)C4CC[C@]3(C)C1[C@@H]2C (stereo partly specified)
4. Clc1ccc(Cl)cc1
5. C[C@@H]1C(=O)NC2=Nc3cccc(Cl)c3CN21
6. CN(C)CC/C=C1/c2ccccc2COc2ccccc21
7. Cc1cc(=O)c2c(O)c3c(cc2o1)OC(C)(C)CC3
8. CC(=O)Oc1cc(OC(C)=O)c2c(=O)c(-c3ccccc3)coc2c1

OUTPUT:
1. 1.01 (inactive)
2. 0.439 (active)
3. 0.0551 (active)
4. 1.01 (inactive)
5. 0.982 (inactive)
6. 0.997 (inactive)
7. 0.973 (inactive)
8. 1.02 (inactive)

----------
assay: chemical genetic growth profiling, strain panel (AID 1159580); details: S. cerevisiae deletion strains, growth OD, locus YEL061C, strain CIN8, stronger effect = lower value
Screen size: about 5,500 compounds; about 2,000 (36%) were called active. Not shown: some 18% with an inconclusive outcome. The list shows a part of the results.
Please respond with reported normalized growth for every item in the list.
Numbers only.

Some compounds with recorded normalized growth:
CCOC(=O)c1ccc2oc3ccc(O)cc3c(=O)c2c1; 0.97
CC(C)(C)C(=O)N1CCN(c2ncccc2C(F)(F)F)CC1; 0.96

Please look at the items below and tell me normalized growth for each one, in order.
1. O=c1oc2ccccc2c(O)c1Cc1c(O)c2ccccc2oc1=O
2. O=c1c2ccccc2oc2ccc(O)cc12

OUTPUT:
0.993
0.863

# return normalized growth for each item in the list
1. C[N+]1(CCCCC[N+]2(C)CCCC2)CCCC1
2. CC1(C)O[C@@H]2CC3C4C[C@H](F)C5=CC(=O)C=C[C@]5(C)[C@@]4(F)[C@@H](O)C[C@]3(C)[C@]2(C(=O)CO)O1 (some centres not stated)
3. COc1ccc(-c2cc(=O)c3ccccc3o2)cc1OC

OUTPUT:
1
0.992
1.03

----------
assay: chemical genetic growth profiling, strain panel (AID 1159580);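 also: tested at 20 µM; growth read once vehicle control cultures reached saturation at 30 °C; 1 = growth at the plate median or of vehicle wells; lower values mean less growth of the strain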; settings: S. cerevisiae deletion strains, growth OD, locus YNR030W, strain Alg12, stronger effect = lower value
The whole screen tested about 5,500 compounds, of which about 2,000 (36%) were called active. Another 18% or so got no clear call; they are omitted. The list shows a part of the results.
ASSAY METRIC: normalized growth

The cases that follow already have their normalized growth on record.
Clc1cccc(-c2csc(Nc3cccnc3)n2)c1; 0.968 (inactive)
COc1cc(NC(=O)NS(=O)(=O)c2ccc(C)cc2)cc(C(F)(F)F)c1; 1.03 (inactive)
CC(=O)C1COc2ccc(C)cc2C1=O (centres undefined); 0.901 (inactive)

INPUT: # input compound: `Cc1ccc(C(=O)c2ccccc2[N+](=O)[O-])cc1` ; wanted: its normalized growth
OUTPUT: 0.939 (inactive)

----------
So I've got a bunch of compounds here, and I need their normalized growth values.
test: chemical genetic growth profiling, strain panel (AID 1159580);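 also: tested at 20 µM; growth read once vehicle control cultures reached saturation at 30 °C; 1 = growth at the plate median or of vehicle wells; lower values mean less growth of the strain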; details: S. cerevisiae deletion strains, growth OD, locus YLR371W, strain rom2, stronger effect = lower value
Screen size: about 5,500 compounds; about 2,000 (36%) were called active. About 18% were inconclusive and are not listed. The list shows a part of the results.

Some compounds with known normalized growth results, for comparison:
O=C(/C=C/c1ccccc1)c1ccc(O)cc1; 0.714 (active)
COc1cc(O)c2c(=O)c(-c3ccc(O)cc3)coc2c1; 0.823 (active)
CCC(CCC(C)[C@H]1CCC2C3CC=C4C[C@@H](O)CC[C@]4(C)C3CC[C@@]21C)C(C)C (some centres undefined); 1 (inactive)

Would you kindly look at the next entry?
INPUT: Look at this compound and give its reported normalized growth. `Cc1cc2cc3c(C)cc(=O)oc3c(C)c2o1`
OUTPUT: 0.99 (inactive)

----------
I'd be grateful if you could share measured normalized growth for these entries.
assay: chemical genetic growth profiling, strain panel (AID 1159580);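 also: tested at 20 µM; growth read once vehicle control cultures reached saturation at 30 °C; 1 = growth at the plate median or of vehicle wells; lower values mean less growth of the strain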; details: S. cerevisiae deletion strains, growth OD, locus YBR229C, strain ROT2, stronger effect = lower value
About 2,000 (36%) of roughly 5,500 compounds were called active. Not shown: some 18% with an inconclusive outcome. The list shows a part of the results.
Give bare numbers.

# example entries with known answers
NCCc1ccc(O)cc1; 0.999
COC(=O)C1=C(Nc2ccc(Cl)cc2)CSC1; 0.967
COc1cc2c3cc1Oc1cc(ccc1O)C[C@@H]1c4c(cc(OC)c(O)c4Oc4ccc(cc4)C[C@@H]3N(C)CC2)CC[N+]1(C)C; 1
CCCCCCCCCCc1ccc(-c2ccccc2)cc1; 1.01
CC(=O)O[C@H]1C[C@H](O[C@H]2[C@@H](O)C[C@H](O[C@H]3[C@@H](O)C[C@H](O[C@H]4CC[C@@]5(C)C(CCC6C5C[C@@H](O)[C@]5(C)[C@@H](C7=CC(=O)OC7)CC[C@]65O)C4)O[C@@H]3C)O[C@@H]2C)O[C@H](C)[C@H]1O[C@@H]1O[C@H](CO)[C@@H](O)[C@H](O)[C@H]1O (stereo partly specified); 1.01

Below is a list of compounds. For each, state its recorded normalized growth.
1. Cn1nnnc1SCC1=C(C(=O)O)N2C(=O)C(NC(=O)C(O)c3ccccc3)C2SC1 (stereo unspecified)
2. COc1ccc(-c2coc3cc(O)cc(O)c3c2=O)cc1
3. CCC1C2CC3C4N(C)c5ccccc5C45CC(C2C5OC(C)=O)N3C1OC(C)=O (stereo unspecified)
4. NCCc1cccc(O)c1
5. COc1cc([C@@H]2c3cc4c(cc3C(O[C@@H]3O[C@@H]5CO[C@@H](c6cccs6)OC5[C@H](O)[C@H]3O)C3COC(=O)[C@@H]32)OCO4)cc(OC)c1O (stereo partly specified)
6. Cn1c(=O)c2[nH]c(C3CCCC3)nc2n(C)c1=O

OUTPUT:
1. 1.01
2. 0.77
3. 1
4. 0.983
5. 1
6. 1.01

Go through the items and report each one's normalized growth.
1. COC(=O)c1ccc(Cl)cc1N(Cc1ccccc1)S(C)(=O)=O
2. O=c1[nH]c2cc(Cl)c(Cl)cc2[nH]c1=O
3. O=c1c2ccccc2[se]n1-c1ccccc1

OUTPUT:
1. 1.02
2. 1.01
3. 1.02

Below is a list of compounds. For each, state its recorded normalized growth.
1. CC(N)Cc1ccc(O)cc1 (stereo unspecified)
2. CC1=C2C(=CO[C@H](C)[C@H]2C)C(=O)C(C(=O)O)=C1O
3. CCCCCCCCCc1ccc(O)cc1
4. COC(=O)C1=C(C)NC(C)=C(C(=O)OCCN(C)Cc2ccccc2)C1c1cccc([N+](=O)[O-])c1 (stereo unspecified)
5. CC(=O)C1COc2ccc(C)cc2C1=O (stereo unspecified)
6. O=C(O)c1nc2cc(Cl)c(Cl)cc2[nH]c1=O

OUTPUT:
[1.01, 0.978, 0.144, 0.952, 0.898, 1.01]

Give one value of normalized growth per listed compound.
1. CN1CCc2c(c3ccccc3n2Cc2ccccc2)C1
2. O=C1CCCc2c1nc(-c1ccccc1)n2O
3. CSc1ccc(C(=O)O)s1
4. COCCOC(=O)C1=C(C)NC(C)=C(C(=O)OC(C)C)C1c1cccc([N+](=O)[O-])c1 (stereo unspecified)
5. CN1CCN2c3ccccc3Cc3ccccc3C2C1 (stereo unspecified)
6. O=C1CCCc2c1c1ccccc1n2Cc1ccccc1
7. CC1(C)O[C@@H]2CC3C4C[C@H](F)C5=CC(=O)C=CC5(C)C4C(O)CC3(C)[C@]2(C(=O)CO)O1 (stereo partly specified)

OUTPUT:
1
1
0.931
0.999
1.01
0.978
1.02
